Test: Acute toxicity (LD50) of AX-2, single injection, 14 days observation, Behrens-Korber's method
Set-up: species or system Mice (ddy strain)
Conditions: mouse, in vivo, ip., male ddy mice
Excerpt: The acute toxicity and anti-tumour activity of AX-2 are as follows. I. Acute toxicity (LD50) of AX-2: Mice (ddy strain; male; weight 20±2 g; each group consisting of 5 mice) were used as test animals. On each occasion, the active substance of this invention was once administered to the animal by injection (ip. or iv.).
Value kind: LD50 at 336 h (mg/kg)
Give your result in mg/kg as a bare value.

-- ask Which LD50 at 336 h value belongs to COC1=C(C)C(=O)C2=C(C1=O)C(COC(N)=O)C1(OC)NCC3C1N23 (stereo not shown) ?
-- reply 7.8
